Test system: Human immunodeficiency virus 2
TEST_PROTOCOL: Ratio of EC50 for HIV2 ROD with protease G17N/V47A mutation to EC50 for wild type HIV2 ROD
Assay type: functional
ASSAY_READOUT: Ratio EC50

{"COMPOUND_SMILES": "CC(C)(C)NC(=O)[C@@H]1CN(Cc2cccnc2)CCN1C[C@@H](O)C[C@@H](Cc1ccccc1)C(=O)N[C@H]1c2ccccc2C[C@H]1O.O", "REPORTED_VALUE": 0.5}
{"COMPOUND_SMILES": "Cc1cccc(C)c1OCC(=O)N[C@@H](Cc1ccccc1)[C@@H](O)C[C@H](Cc1ccccc1)NC(=O)[C@H](C(C)C)N1CCCNC1=O", "REPORTED_VALUE": 7.4}
{"COMPOUND_SMILES": "Cc1c(O)cccc1C(=O)N[C@@H](CSc1ccccc1)[C@H](O)CN1C[C@H]2CCCC[C@H]2C[C@H]1C(=O)NC(C)(C)C", "REPORTED_VALUE": 0.4}
{"COMPOUND_SMILES": "CC(C)(C)NC(=O)[C@@H]1C[C@@H]2CCCC[C@@H]2CN1C[C@@H](O)[C@H](Cc1ccccc1)NC(=O)[C@H](CC(N)=O)NC(=O)c1ccc2ccccc2n1", "REPORTED_VALUE": 0.1}
{"COMPOUND_SMILES": "COC(=O)N[C@H](C(=O)N[C@@H](Cc1ccccc1)[C@@H](O)CN(Cc1ccc(-c2ccccn2)cc1)NC(=O)[C@@H](NC(=O)OC)C(C)(C)C)C(C)(C)C", "REPORTED_VALUE": 0.1}
{"COMPOUND_SMILES": "CC(C)CN(C[C@@H](O)[C@H](Cc1ccccc1)NC(=O)O[C@H]1CO[C@H]2OCC[C@H]21)S(=O)(=O)c1ccc(N)cc1", "REPORTED_VALUE": 0.9}
{"COMPOUND_SMILES": "CC(C)CN(C[C@@H](O)[C@H](Cc1ccccc1)NC(=O)O[C@H]1CCOC1)S(=O)(=O)c1ccc(N)cc1", "REPORTED_VALUE": 0.5}
{"COMPOUND_SMILES": "CC(C)c1nc(CN(C)C(=O)N[C@H](C(=O)N[C@@H](Cc2ccccc2)C[C@H](O)[C@H](Cc2ccccc2)NC(=O)OCc2cncs2)C(C)C)cs1", "REPORTED_VALUE": 0.2}
